// provenance: ChEMBL document CHEMBL1153453

Target: Thymidine phosphorylase (Escherichia coli K-12)
Sequence (P07650 whole entry): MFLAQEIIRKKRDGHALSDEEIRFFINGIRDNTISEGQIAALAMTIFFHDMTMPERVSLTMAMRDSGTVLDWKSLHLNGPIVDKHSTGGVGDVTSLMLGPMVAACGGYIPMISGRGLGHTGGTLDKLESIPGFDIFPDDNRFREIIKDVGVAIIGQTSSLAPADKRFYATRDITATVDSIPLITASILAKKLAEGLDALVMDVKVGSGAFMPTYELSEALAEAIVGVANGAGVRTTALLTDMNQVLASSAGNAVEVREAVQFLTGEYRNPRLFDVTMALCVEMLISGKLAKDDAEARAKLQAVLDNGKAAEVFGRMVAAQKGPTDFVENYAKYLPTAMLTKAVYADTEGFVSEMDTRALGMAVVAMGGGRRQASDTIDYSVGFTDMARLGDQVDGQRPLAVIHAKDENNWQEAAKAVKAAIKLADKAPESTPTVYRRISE
Assay: Inhibition of Escherichia coli thymidine phosphorylase
observation.type: IC50

Some entries whose results are on file:
O=c1c(/C=N/c2cccnc2)coc2ccccc12: Not Active
Cc1ccc(/N=C/c2coc3ccccc3c2=O)cc1: Not Active
Cc1cccc(C)c1/N=C/c1coc2ccccc2c1=O: Not Active
CC(C)(C)NC(NC(C)(C)C)c1coc2ccccc2c1=O: Not Active
COc1cccc(/N=C/c2coc3ccccc3c2=O)c1: Not Active

(Q) Data request, read-out IC50, for O=c1c(/C=N/c2ccncc2)coc2ccccc12
(A) Not Active

(Q) Give the measured IC50 of COc1cc([N+](=O)[O-])ccc1/N=C/c1coc2ccccc2c1=O .
(A) Not Active

(Q) Query: IC50; subject: O=C(O)c1ccccc1/N=C/c1coc2ccccc2c1=O
(A) Not Active

###

Target: UniProt P07650
Test: Inhibition of Escherichia coli thymidine phosphorylase
Settings: read-out: IC50
pIC50 listing for selected compounds.
Would you please state pIC50, meaning minus log10 of the concentration in mol/L, as a bare number?

O=c1c(/C=N/c2ccc(Cl)cc2Cl)coc2ccccc12: 4.39
O=c1c(/C=N/c2ncccc2O)coc2ccccc12: 3.47
O=c1c(/C=N/C(CO)Cc2ccccc2)coc2ccccc12 (centres undefined): 3.33
Cc1cccc([N+](=O)[O-])c1/N=C/c1coc2ccccc2c1=O: 3.32

(Q) Quick check: pIC50 of COc1cc(/N=C/c2coc3ccccc3c2=O)ccc1C ?
(A) 4.70

(Q) Fill blank: measured pIC50 of the compound O=c1c(/C=N/CC/N=C/c2coc3ccccc3c2=O)coc2ccccc12 is ____.
(A) 3.82

(Q) Recorded pIC50 for CCC(=O)N/N=C/c1coc2ccccc2c1=O , please?
(A) 3.84

(Q) What does the record list as pIC50 for O=C(c1ccccc1)c1cc(Cl)ccc1/N=C/c1coc2ccccc2c1=O ?
(A) 4.12

(Q) Which pIC50 is listed for Cc1cccc(/N=C/c2coc3ccccc3c2=O)c1 ?
(A) 4.17
